biological target: UniProt:P43116; assay: EP2 receptor modulators, dose response, cell-based, human EP2, PGE2 EC50 shift (AID 1421); details: EP2-expressing cells, PGE2 EC50 shift by compound; measured here: PGE2 EC50 at 6.7 uM compound
Sequence (P43116 whole entry, looked up): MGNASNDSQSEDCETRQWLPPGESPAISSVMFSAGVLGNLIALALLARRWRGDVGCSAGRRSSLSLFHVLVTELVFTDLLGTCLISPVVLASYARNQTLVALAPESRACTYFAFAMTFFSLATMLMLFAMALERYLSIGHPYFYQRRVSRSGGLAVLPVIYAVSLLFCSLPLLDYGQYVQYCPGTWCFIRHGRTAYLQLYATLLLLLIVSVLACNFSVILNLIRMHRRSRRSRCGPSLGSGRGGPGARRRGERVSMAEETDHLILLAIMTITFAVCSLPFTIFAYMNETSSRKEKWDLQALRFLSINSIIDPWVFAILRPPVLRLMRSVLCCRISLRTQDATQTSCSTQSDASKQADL
Entries whose PGE2 EC50 with compound is below 2 nM take Yes; entries at or above 2 nM take No.

Previously resolved entries follow.
compound: CC(C)c1ccc(OCC(=O)NC(=S)Nc2ccc3c4c(cccc24)CC3)cc1
classification: No
--
compound: COC(=O)NC1(C(F)(F)F)C(=O)NC(C)=C1C(=O)OC (stereo unspecified)
classification: Yes
--
compound: CSc1nnc(-c2ccc(F)cc2)o1
classification: Yes
--
compound: Cc1cc(=O)oc(C)c1C(=O)OC(C(=O)c1ccccc1)c1ccccc1 (stereo unspecified)
classification: Yes
--
compound: CCOC(=O)c1ccc2nc(C(F)(F)F)[nH]c(=O)c2c1
classification: Yes
--
compound: CCOC(=O)c1c(NC(=O)c2cccs2)sc2c1CCN(C(=O)OCC)C2
classification: Yes

Here's an entry: COc1ccc(C(=O)/C(=C/O)N=Nc2ccc(F)cc2)cc1 . Is its PGE2 EC50 with compound below 2 nM?
Yes

Okay, and COc1ccc(C(=O)N2N=C(c3ccccc3)CC2(O)C(F)(F)F)cc1 (stereo unspecified) ?
No

Okay, and COc1ccc(-c2nc3c(c(=O)[nH]c(=O)n3Cc3ccccc3)n2Cc2ccccc2)cc1 ?
Yes

Okay, and NC(=O)COc1ccc(C23CC4CC(CC(C4)C2)C3)cc1 ?
No

Okay, and CC1C(c2ccccc2)N(C)C(c2ccccc2)C(C)C1(O)C#Cc1ccccc1 (stereo unspecified) ?
Yes

---

molecular target: Prostaglandin E2 receptor EP2 subtype (Homo sapiens); assay: EP2 receptor modulators, dose response, cell-based, human EP2, PGE2 EC50 shift (AID 1421); details: EP2-expressing cells, PGE2 EC50 shift by compound; measured here: PGE2 EC50 at 6.7 uM compound
Task for the reader: assign each of the following compounds its reported PGE2 EC50 with compound.
Numbers only, in nM.

Example entries and their recorded answers appear below.
compound: O=C(Nc1cc(S(=O)(=O)Nc2ccc(Cl)cc2)ccc1N1CCCCC1)c1ccc(F)cc1Cl
PGE2 EC50 with compound, nM: 0.87

compound: COCCOC(=O)c1c(C)oc2ccc(OCc3ccccc3)cc12
PGE2 EC50 with compound, nM: 1.04

compound: C=CCSc1ncnc2sc(C)c(C)c12
PGE2 EC50 with compound, nM: 1.3

compound: Cn1c(=O)c2c(nc(SCC(=O)c3cccs3)n2Cc2ccc(F)cc2)n(C)c1=O
PGE2 EC50 with compound, nM: 0.99

Below is a list of compounds. For each, state its recorded PGE2 EC50 with compound.
1. CCOC(=O)c1sc2nc(C)nc(N3CCN(c4ncccn4)CC3)c2c1C
2. O=C(CSc1ncnc2c1oc1ccccc12)Nc1ccccc1C(F)(F)F

[0.62, 1.17]

Below is a list of compounds. For each, state its recorded PGE2 EC50 with compound.
1. O=C(OCc1ccc(Cl)cc1)c1ccccc1C(=O)c1ccccc1
2. COc1nc(-c2ccccc2)nnc1-c1ccccc1
3. CCCCn1c(-c2csc3c2CCCC3)n[nH]c1=S
4. Cn1c(=O)[nH]c(=O)c2c1nc(CN1CCN(c3cccc(Cl)c3)CC1)n2Cc1ccccc1Cl
5. Cc1onc(-c2c(F)cccc2Cl)c1C(=O)OCn1nnc2ccccc2c1=O
6. Cc1cc(C)c2c(n1)sc1c(=O)n(Cc3ccccc3Cl)nnc12
7. Nc1c(C(=O)NCc2ccccc2)c2nc3ccccc3nc2n1CCCN1CCOCC1
8. O=C(c1ccco1)N(CC1CCCO1)c1nc(-c2ccccc2)cs1 (configuration not stated)

[1.02, 1.05, 1.25, 0.94, 0.92, 0.92, 1.09, 0.61]
